molecular target: SARS-COV-2 RBD extracellular domain expressed with a C-terminal myc-myc-hexahistidine tag (SARS-CoV-2); experiment: SPR (Biacore), mAb captured by anti-human Fc, RBD-mmH in solution, 25 C
pKd: −log10 of the molar value.
Listing of entries alongside the reported pKd.
Measured Quantity: pKd

Binder: mAb14234 (antibody, V domains shown) VH: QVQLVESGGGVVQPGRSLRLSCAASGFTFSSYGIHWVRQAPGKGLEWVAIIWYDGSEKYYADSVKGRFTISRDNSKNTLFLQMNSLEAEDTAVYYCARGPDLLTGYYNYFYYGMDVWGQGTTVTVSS VL: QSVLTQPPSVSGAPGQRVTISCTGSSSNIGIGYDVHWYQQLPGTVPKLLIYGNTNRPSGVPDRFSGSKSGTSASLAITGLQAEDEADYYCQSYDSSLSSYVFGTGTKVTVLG
Measured Quantity: pKd
Endpoint Result: 7.69

Binder: mAb14285 (antibody, V domains shown) VH: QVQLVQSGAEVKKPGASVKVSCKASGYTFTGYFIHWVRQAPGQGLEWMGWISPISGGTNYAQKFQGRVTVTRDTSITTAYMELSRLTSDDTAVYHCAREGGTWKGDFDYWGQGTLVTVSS VL: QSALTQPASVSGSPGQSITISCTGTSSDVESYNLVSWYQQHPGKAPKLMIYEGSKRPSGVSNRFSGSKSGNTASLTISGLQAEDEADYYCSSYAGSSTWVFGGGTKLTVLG
Measured Quantity: pKd
Endpoint Result: 7.93

Binder: mAb14283 (antibody, V domains shown) VH: QVQLQESGPGLVKPSGTLSLTCDVSGGSISSNNWWSWVRQRPGKGLQWIGEIYHNENTNYNPSLKSRVIMSIDKSKNQFSLKLTSVTAADTAVYYCARGDVLDWFDPWGQGTLVTVSS VL: QSALTQPASVSGSPGQSTTISCTGTSSDVGGYNYVSWYQQYPGKAPKLMIYDVTNRPSGVSHRFSGSKSGNTASLTISGLQAEDEADYYCSSYTSSSTVIFGGGTKLTVLG
Measured Quantity: pKd
Endpoint Result: 8.97

Binder: mAb14235 (antibody, V domains shown) VH: QITLKESGPTLVKPTQTLTLTCTFSGFSLNTGGVGVGWIRQPPGNALEWLALIYWDDDKRYNPSLKTRLTISKDTSKNQVVLTMTNMDPVDTATYFCAHLTIAVIVDFWGQGTLVTVSS VL: QSALTQPASVSGSPGQSITISCTATSSDVGTYNYVSWFQHHPGKAPKLMIYEVTNRPSGVSNRFSGSKSGNTASLTISGLQAEDEADYYCSSYTTTSIVFGGGTKLTVLG
Measured Quantity: pKd
Endpoint Result: 8.88

Binder: mAb15151 (antibody, V domains shown) VH: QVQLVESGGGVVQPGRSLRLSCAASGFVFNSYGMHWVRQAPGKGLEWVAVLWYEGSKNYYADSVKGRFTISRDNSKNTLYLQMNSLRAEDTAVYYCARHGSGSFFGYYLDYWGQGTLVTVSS VL: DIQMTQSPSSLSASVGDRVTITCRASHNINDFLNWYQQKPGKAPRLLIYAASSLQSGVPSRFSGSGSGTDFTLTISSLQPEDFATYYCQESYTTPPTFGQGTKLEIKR
Measured Quantity: pKd
Endpoint Result: 8.41
